Collected activation values appear next to each entry.
# experimental_details: qHTS assay for small molecule activators of the p53 signaling pathway (AID 651743); note: % of control where 0% means no effect
# settings: HCT-116 p53RE-bla, beta-lactamase FRET ratio, 16 h; hits give high values
Inconclusive results are not listed.

compound	activation, %
CC(C)C=O	0.787
Cc1cccc(C)c1O	-0.5
O=Cc1c(Cl)cccc1Cl	-2.41
C=CCn1c(=O)n(CC=C)c(=O)n(CC=C)c1=O	0.0041
CC(C)=C1CCC(C)CC1=O (centres undefined)	-1.57
CCOc1ccccc1N	-1.62
O=[N+]([O-])c1c(Cl)cc(Cl)cc1Cl	1.35
N#CC1(O)CCCCC1	0.526
CC(C)N(C)C	-1.2

----------
# measured_target: Vitamin D3 receptor (Homo sapiens)
# experimental_details: qHTS assay for small molecule agonists of vitamin D receptor signaling (AID 588543);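 note: 0% = DMSO basal and 100% = reference agonist control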
# settings: HEK293T VDR-UAS-bla, beta-lactamase ratio, 16 h; series mostly up to 76.8 µM
Results filed as inconclusive are left out. Activity calls are given as the source filed them. Calls come from the whole dose curve.

compound	outcome
Cc1nc2ccc(Cl)cc2[nH]1	inactive
C=C(C)C(=O)OCC(C)O (stereo not given)	inactive
c1ccc(Oc2ccccc2)cc1	inactive
CC/C=C/C#N	inactive
COc1ccc(N=[N+]([O-])c2ccc(OC)cc2)cc1	inactive
CCC1CO1 (stereo not given)	inactive
ClCCl	inactive
Nc1ccc(Cl)cc1[N+](=O)[O-]	inactive
Cc1ccccc1C(=O)O	inactive
COc1cccc(N)c1	inactive
CC=C(Cl)Cl	inactive
CC(=C/C=C/C(C)=C/C=C/C=C(C)/C=C/C=C(C)/C=C/C(=O)O)/C=C/C(=O)O	inactive
CCc1ccccc1	inactive
COC(=O)CS	inactive
Cc1cc(C)cc(N)c1	inactive
O=Cc1cccc(Br)c1	inactive
CC(=O)Nc1ccc(C)cc1	inactive
CCOc1cccc(N)c1	inactive
O=[N+]([O-])c1ccccc1CCO	inactive
Cc1cccc2ccccc12	inactive

----------
# experimental_details: MultiTox-Fluor Cytotoxicity Assay - LYMP1-001 - Live Cells (AID 947);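 note: 0% = DMSO only and full inhibition = tetraoctylammonium bromide control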
# settings: LYMP1-001 lymphoblastoid cells, live-cell protease fluorescence viability; series mostly up to 92.2 µM
Results filed as inconclusive are left out. Calls of active or inactive are those of the source. Calls follow the shape of the dose curve; as a rule, active = well fitted cell-killing curve with a large enough effect; inconclusive = small, poorly fitted or top-dose-only effect; inactive = flat fitted curve, though single readings scatter.
reported_property: outcome

molecule	result_value
Clc1cc(Cl)cc(Cl)c1	inactive
Cc1ccccc1C=O	inactive
CC(C)=CCl	inactive
O=C1CCCCC1	inactive
c1ccc(Oc2ccccc2)cc1	inactive
O=C(O)CCSSCCC(=O)O	inactive
C=C(C)C(=O)OCC(C)O (stereo not drawn)	inactive
CC(=O)c1ccc([N+](=O)[O-])cc1	inactive
CC(C)CCOC(=O)/C=C/c1ccccc1	inactive
CC(=O)Nc1ccc(N)cc1	inactive
O=[N+]([O-])c1cccc(Cl)c1	inactive
CC(=O)Nc1ccc(C)cc1	inactive
O=[N+]([O-])c1ccc2nc[nH]c2c1	inactive
Cc1ccccc1Br	inactive
Nc1cccc(C(F)(F)F)c1	inactive
Nc1cccc(O)c1	inactive
CC(C)(C)c1ccc(OCC2CO2)cc1 (stereo not drawn)	inactive
Cc1ccc(Br)cc1	inactive
CC(C)(c1cc(Br)c(OCC(Br)CBr)c(Br)c1)c1cc(Br)c(OCC(Br)CBr)c(Br)c1 (stereo not drawn)	inactive
C[C@@H]1CC2(OC3C[C@@]4(C)C5=CC[C@H]6C(C)(C)C(O[C@@H]7OC[C@@H](O)[C@H](O)[C@H]7O)CC[C@@]67C[C@@]57CC[C@]4(C)C31)OC(O)C1(C)OC21 (stereo partly drawn)	inactive
CCCCC(CC)CNCC(CC)CCCC (stereo not drawn)	inactive
O=C(O)c1c(Cl)cccc1Cl	inactive
O=Cc1ccc(C(=O)O)cc1	inactive
CCCOCC(C)OCC(C)O (stereo not drawn)	inactive
CC(C)CO	inactive
CCCCC(CC)C(=O)O (stereo not drawn)	inactive
CCc1ccccc1	inactive
C=CCCCC	inactive
C=CCOC(=O)COCCC(C)C	inactive
CCCCCO	inactive
Cc1ccco1	inactive
Cc1cccc(Br)c1	inactive
CCCCCCC=O	inactive

----------
# experimental_details: Cell Viability - LYMP2-013 (AID 970);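 note: cells exposed to compound for 24 h at 37 °C; 0% = DMSO only and full inhibition = tetraoctylammonium bromide control; nearly all actives have a fitted effect of over 55% in size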
# settings: LYMP2-013 lymphoblastoid cells viability; series mostly up to 92.2 µM
Records with an inconclusive call do not appear. Activity calls are given as the source filed them. Calls follow the shape of the dose curve; as a rule, active = well fitted cell-killing curve with a large enough effect; inconclusive = small, poorly fitted or top-dose-only effect; inactive = flat fitted curve, though single readings scatter.
reported_property: outcome

compound	result_value
CCCOCC(C)OCC(C)O (stereo unspecified)	inactive
CC(=O)C1(C)CC2=C(CCCC2(C)C)CC1C (stereo unspecified)	inactive
Cc1ccc2ncccc2c1	inactive
c1ccc2c(c1)Oc1ccccc1S2	inactive
O=Cc1ccc(C(=O)O)cc1	inactive
Cc1c(C(=O)O)cccc1[N+](=O)[O-]	inactive
Nc1cccc(N)c1	inactive
Nc1cccc([N+](=O)[O-])c1	inactive
O=C(O)CCSSCCC(=O)O	inactive
c1ccc2[nH]cnc2c1	inactive
Cc1ccc(Br)cc1	inactive
O=P(O)(OCc1ccccc1)OCc1ccccc1	inactive
CCN(CC)c1cccc(O)c1	inactive
C=CCOC(=O)COCCC(C)C	inactive
CC1CCCO1 (stereo unspecified)	inactive
CC(C)Cc1nccs1	inactive
NC(N)=S	inactive
Nc1nc(CC(=O)O)cs1	inactive
Cc1cccc([N+](=O)[O-])c1C(=O)O	inactive
C=CCn1c(=O)n(CC=C)c(=O)n(CC=C)c1=O	inactive
CNc1ccc([N+](=O)[O-])cc1	inactive
CCCCCCC=O	inactive
Oc1cccc(Nc2ccccc2)c1	inactive
CC(C)c1ccccc1	inactive
CC(C=O)Cc1ccc(C(C)(C)C)cc1 (stereo unspecified)	inactive
OC1CCCC1	inactive
Clc1ccccn1	inactive
NC(=O)c1ccccc1[N+](=O)[O-]	inactive
O=C1OC(=O)c2cc([N+](=O)[O-])ccc21	inactive
Cc1ccc([N+](=O)[O-])c(N)c1	inactive
Fc1ccccc1	inactive
Cc1cccc2cccnc12	inactive
CCCC=O	inactive
Cc1ccccc1C=O	inactive
O=C(Cl)c1cccc([N+](=O)[O-])c1	inactive
CC(O)COC(C)(C)C (stereo unspecified)	inactive

----------
# measured_target: Thyroid hormone receptor beta (Homo sapiens) (UniProt P10828)
# Sequence (P10828 whole entry, looked up): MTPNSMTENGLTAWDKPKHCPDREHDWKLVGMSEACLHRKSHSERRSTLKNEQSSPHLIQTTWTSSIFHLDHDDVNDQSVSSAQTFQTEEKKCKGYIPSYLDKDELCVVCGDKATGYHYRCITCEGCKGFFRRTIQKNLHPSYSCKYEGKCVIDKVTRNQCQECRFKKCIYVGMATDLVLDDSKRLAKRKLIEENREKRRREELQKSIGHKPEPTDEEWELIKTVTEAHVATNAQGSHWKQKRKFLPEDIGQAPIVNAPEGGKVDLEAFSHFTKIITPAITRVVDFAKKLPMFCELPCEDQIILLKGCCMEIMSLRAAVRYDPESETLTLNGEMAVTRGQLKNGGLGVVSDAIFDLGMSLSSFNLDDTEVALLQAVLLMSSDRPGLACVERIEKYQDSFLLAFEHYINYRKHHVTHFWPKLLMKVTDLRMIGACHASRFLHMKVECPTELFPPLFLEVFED
# experimental_details: qHTS assay for small molecule antagonists of thyroid hormone receptor beta signaling (AID 588547);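 note: cells stimulated with 0.4 nM T3 agonist during compound exposure; % is set by controls: 0 for no effect and ±100 for the full control effect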
# settings: TR-UAS-bla HEK293, beta-lactamase ratio, antagonist mode, 18 h
# Excerpt: NIH Chemical Genomics Center [NCGC] U.S. Environmental Protection Agency [EPA] National Institutes of Environmental Health Sciences [NIEHS] National Toxicology Program [NTP] […] NCGC Assay Protocol Summary Using a beta-lactamase reporter-gene under control of the TR response element, a cell-based assay [GeneBLAzer TR-UAS-bla-GripTite assay developed by Invitrogen] was used to measure TR-beta signaling in antagonist mode. […] Detection; Fluorescence; Envision plate reader
Records with an inconclusive call do not appear.
reported_property: activity change % (negative = inhibition) (%)

compound	scale_unit	result_value
FB(F)F	%	15.2
CC(=O)c1ccc([N+](=O)[O-])cc1	%	-0.995
CC/C=C1/OC(=O)c2ccccc21	%	10.4
O=C1C=CCCC1	%	-3.89
C=CCCCCCC	%	-3.79
CN(C)CCCCl	%	10.5
CCOC(C)(C)C	%	-6.37
O=[N+]([O-])c1cccc(C(F)(F)F)c1	%	8.91
CCCCCCCCCCCCOCC1CO1 (stereo not given)	%	-4.18
CC=C(Cl)Cl	%	-14.6
Nc1nc(CC(=O)O)cs1	%	1.64
COC(=O)CCC(=O)OC	%	1.67
Nc1cccc(S(=O)(=O)O)c1	%	-28.7
Oc1c(Cl)ccc(Cl)c1Cl	%	13.7
CC(=O)OC(C)=O	%	16.3
Cc1ccccc1C=O	%	20.8
O=P(O)(OCc1ccccc1)OCc1ccccc1	%	0.248
COc1cccc2sc(N)nc12	%	-20.5
Cc1ccc(CO)cc1	%	14.7
Cc1c(N)cccc1N	%	-2.96
CO[Si](CCCNCCC[Si](OC)(OC)OC)(OC)OC	%	-0.795
O=C(Cl)c1cccc([N+](=O)[O-])c1	%	5.89
CC(=O)c1cc(C)oc1C	%	-4.91
C=CC(=O)NC(C)C	%	-0.537
OCCO	%	21
Cc1ccc2c(c1[N+](=O)[O-])C(=O)c1ccccc1C2=O	%	-11.5
C=C(C)C(N)=O	%	-24.4
Nc1c(Cl)cc(Cl)cc1Cl	%	14.8
CCNS(=O)(=O)c1ccc(C)cc1	%	-4.68
Cc1ccc(C)c([N+](=O)[O-])c1	%	0.688
C=Cc1ccccc1C=C	%	-4.38
Cc1ccc(C)c(O)c1	%	1.01
NC(=O)NC(N)=O	%	9.23
Cc1cc([N+](=O)[O-])ccc1N	%	-9.22
O=C(O)c1ccc(Cl)cc1Cl	%	-8.73
NC(=O)CCCCC(N)=O	%	2
CC1=C(/C=C/C(C)=C/C=C/C(C)=C\C=O)C(C)(C)CCC1	%	-14.6
Cc1cccc(Br)c1	%	0.545
O=[N+]([O-])c1cc(C(F)(F)F)ccc1Cl	%	-5.36
CC(C)(C)OCC1CO1 (stereo not given)	%	13.4
O=Cc1cccc(Br)c1	%	-16.4
O=C(O)c1cc(Cl)cc(Cl)c1	%	6.89
CC1(N)CCC(C(C)(C)N)CC1 (stereo not given)	%	-1.11
Cc1ccc(C)cc1	%	2.43
Nc1ccc(Cl)cc1[N+](=O)[O-]	%	1.54
C=CC(=O)OCCCC	%	1.99
CCCCCCO	%	4.77
CCN(C(=O)N(CC)c1ccccc1)c1ccccc1	%	1.82
Cc1ccc2ncccc2c1	%	1.73
BrC/C=C/CBr	%	15.3
COC(=O)CCCC(=O)OC	%	-27
O=Cc1ccccc1Cl	%	5
CCC(C)(C)C(=O)O	%	-3.87
CC(=O)c1cccc([N+](=O)[O-])c1	%	10.7
Cc1cccc(C(=O)O)c1[N+](=O)[O-]	%	-11.8
O=C(O)c1ccc(CO)o1	%	-7.49
C[C@@H]1O[C@@H](O[C@@H]2[C@@H](O)[C@H](OCCc3ccc(O)c(O)c3)O[C@H](CO[C@@H]3O[C@H](CO)[C@@H](O)[C@H](O)[C@H]3O)[C@H]2OC(=O)/C=C/c2ccc(O)c(O)c2)[C@H](O)[C@H](O)[C@H]1O	%	4.68
NC(=O)c1cccc([N+](=O)[O-])c1	%	12.3
CC(=O)CCc1ccccc1	%	12
C/C=C1\CC2C=CC1C2 (stereo not given)	%	2.19
CC/C(C)=N/O	%	13.4
Nc1cccc([N+](=O)[O-])c1	%	-4.44
Cc1nc2ccc(Cl)cc2[nH]1	%	9.04
CCCC(Cl)CCCC(Cl)CCC(Cl)CCC(Cl)CCC(Cl)CCCC(Cl)CCC (stereo not given)	%	-14.9
O=C(O)c1ccccc1C(=O)O	%	0.364
